Assay: Bioavailability in Sprague-Dawley rat at 5 mg/kg, sc by LC-MS/MS method
Type: ADME, organism-based
Conditions: in vivo
metric: bioavailability (%)
The reply should contain only the number, in %.

-- ask Name the recorded bioavailability for CNCCN(C)Cc1c[nH]nc1-c1ccc(O[C@H]2C[C@H](OCCC3CCOCC3)C2)cc1 .
-- reply 65.6

###

Target: UniProtKB Q96LA8
Test: Inhibition of FLAG and hexa-histidine tagged full-length human PRMT6 expressed in HEK293F cells pre-incubated for 30 mins before addition of a [3H]SAM and peptide mix
Assay type: cell-based
Heads up, the class ranges for IC50 are bottom bin = under 8 nM, middle bin = from 8 nM up to 20 nM, top bin = 20 nM and over

-- ask // return the class label for CNCCN(C)Cc1c[nH]nc1-c1ccc(OC(C)C)cc1
-- reply middle bin

-- ask Would you mind sorting CN(CCN)Cc1c[nH]nc1-c1ccc(OCCCN2CCOCC2)cc1 into the appropriate category?
-- reply middle bin

-- ask In plain terms, what class is CCOc1ccc(-c2[nH]ncc2CN(C)CCNC)cc1 ?
-- reply top bin

-- ask Classify this molecule: CNCCN(C)Cc1c[nH]nc1-c1cc(OCCc2ccccc2)cc(C(F)(F)F)c1
-- reply top bin

-- ask Exam item: assign CNCCN(C)Cc1c[nH]nc1-c1cc(OCCC2CCCCC2)cc(C(F)(F)F)c1 to the correct category.
-- reply top bin

-- ask Which of the defined bands does the recorded IC50 of CNCCN(C)Cc1cn[nH]c1-c1ccc(OC(C)C)c(Cl)c1 sit within?
-- reply middle bin

-- ask Form: Item = CNCCN(C)Cc1n[nH]cc1-c1ccc(Oc2cccc(C(=O)N(C)C)c2)cc1 ; Class = ?
-- reply bottom bin

-- ask Hi, small favor: classify CC(C)Oc1c(Cl)cc(-c2c[nH]nc2CN(C)CCN)cc1C(F)(F)F by its IC50 when you get a moment.
-- reply top bin

-- ask Which class holds CNCCN(C)Cc1n[nH]cc1-c1ccc(Oc2ccccc2C(=O)NC)cc1 ?
-- reply bottom bin

-- ask Just checking, what class would you give CNCCN(C)Cc1c[nH]nc1-c1ccc(Oc2cccc(C(=O)N(C)C)c2)cc1 here?
-- reply bottom bin

###

Assay: Cmax in Sprague-Dawley rat at 5 mg/kg, sc by LC-MS/MS method
Type: ADME, organism-based
Parameters: dose 5 mg/kg, route subcutaneous
Conditions: in vivo
metric: Cmax (ng/mL)
Form entry: value (ng/mL) — number only.

-- ask Which Cmax value is on record for CNCCN(C)Cc1c[nH]nc1-c1ccc(O[C@H]2C[C@H](OCCC3CCOCC3)C2)cc1 ?
-- reply 844

###

Test: AUC (0 to t) in Sprague-Dawley rat at 1 mg/kg, iv administered as single dose by LC-MS/MS method
Type: ADME, organism-based
Conditions: in vivo
metric: AUC(0-t)

-- ask Look up AUC(0-t) for this molecule: CNCCN(C)Cc1c[nH]nc1-c1ccc(O[C@H]2C[C@H](OCCC3CCOCC3)C2)cc1
-- reply 0.745 µg·h/mL

###

Assay: Oral bioavailability in rat
Format: ADME, organism-based
Details: in vivo
metric: bioavailability

-- ask Sample CNCCN(C)Cc1c[nH]nc1-c1ccc(O[C@H]2C[C@H](OCCC3CCOCC3)C2)cc1 — what was its bioavailability?
-- reply < 5%

###

Molecular target: Protein arginine N-methyltransferase 6 (Homo sapiens)
Sequence (Q96LA8 whole entry): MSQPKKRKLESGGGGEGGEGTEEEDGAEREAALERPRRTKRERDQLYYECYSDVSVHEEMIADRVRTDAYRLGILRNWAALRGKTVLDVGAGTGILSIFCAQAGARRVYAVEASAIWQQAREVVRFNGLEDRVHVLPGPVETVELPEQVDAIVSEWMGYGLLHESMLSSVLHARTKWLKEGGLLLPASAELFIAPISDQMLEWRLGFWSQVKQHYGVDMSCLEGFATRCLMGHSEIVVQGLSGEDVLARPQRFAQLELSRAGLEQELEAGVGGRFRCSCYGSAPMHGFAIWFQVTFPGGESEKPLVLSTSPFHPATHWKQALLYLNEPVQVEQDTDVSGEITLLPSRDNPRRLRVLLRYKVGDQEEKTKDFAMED
Test: Inhibition of his-tagged PRMT6 (unknown origin) expressed in human A375 cells assessed as reduction in H3R2 methylation at 0.01 to 20 uM incubated for 48 hrs by Western blot method
Format: cell-based, A-375
metric: IC50 (nM)
Write down the numeric answer in nM and omit the unit.

-- ask Looking for the measured IC50 of CNCCN(C)Cc1c[nH]nc1-c1ccc(O[C@H]2C[C@H](OCCC3CCOCC3)C2)cc1 , can you help?
-- reply 637

###

Assay: AUC (0 to infinity) in Sprague-Dawley rat at 1 mg/kg, iv administered as single dose by LC-MS/MS method
Type: ADME, organism-based
Set-up: dose 1 mg/kg, route intravenous, time infinity
Details: in vivo
metric: AUC(0-inf) (ng·h/mL)
The response must be a number in ng·h/mL with no trailing unit.

-- ask Tell me the measured AUC(0-inf) of CNCCN(C)Cc1c[nH]nc1-c1ccc(O[C@H]2C[C@H](OCCC3CCOCC3)C2)cc1 , please.
-- reply 846

###

Assay: Unbound fraction in human plasma at 1 uM at 37 degC by equilibrium dialysis and LC-MS/MS method
Format: ADME, cell-free
metric: fraction unbound at 1 µM
// no unit, no text: just the number

-- ask Name the recorded fraction unbound at 1 µM for CNCCN(C)Cc1c[nH]nc1-c1ccc(O[C@H]2C[C@H](OCCC3CCOCC3)C2)cc1 .
-- reply 0.52

###

Experiment: Unbound fraction in Sprague-Dawley rat plasma at 1 uM at 37 degC by equilibrium dialysis and LC-MS/MS method
Format: ADME, cell-free
metric: fraction unbound at 1 µM
Lab note: record just the number, no unit beside it.

-- ask Which fraction unbound at 1 µM is listed for CNCCN(C)Cc1c[nH]nc1-c1ccc(O[C@H]2C[C@H](OCCC3CCOCC3)C2)cc1 ?
-- reply 0.51

###

Target: Protein arginine N-methyltransferase 1 (Homo sapiens)
Experiment: Inhibition of N-terminal GST tagged full-length human PRMT1 expressed in high five insect cells pre-incubated for 30 mins before addition of a [3H]SAM and peptide mix
metric: IC50 (nM)
Give just the numeric value; nM need not be written.

-- ask For the compound shown here, CNCCN(C)Cc1cn[nH]c1-c1ccc(OC(CO)C(C)C)cc1 (stereo unspecified) , give the reported IC50.
-- reply 27

###

Test: AUC (0 to infinity) in Sprague-Dawley rat at 5 mg/kg, sc by LC-MS/MS method
Assay type: ADME, organism-based
Parameters: dose 5 mg/kg, route subcutaneous, time infinity
Conditions: in vivo
metric: AUC(0-inf) (ng·h/mL)
Numeric answer only, unit ng·h/mL assumed.

-- ask Any idea what AUC(0-inf) was measured for CNCCN(C)Cc1c[nH]nc1-c1ccc(O[C@H]2C[C@H](OCCC3CCOCC3)C2)cc1 ?
-- reply 2780

###

Molecular target: Protein arginine N-methyltransferase 1 (Homo sapiens, UniProt Q99873)
Sequence (Q99873 whole entry): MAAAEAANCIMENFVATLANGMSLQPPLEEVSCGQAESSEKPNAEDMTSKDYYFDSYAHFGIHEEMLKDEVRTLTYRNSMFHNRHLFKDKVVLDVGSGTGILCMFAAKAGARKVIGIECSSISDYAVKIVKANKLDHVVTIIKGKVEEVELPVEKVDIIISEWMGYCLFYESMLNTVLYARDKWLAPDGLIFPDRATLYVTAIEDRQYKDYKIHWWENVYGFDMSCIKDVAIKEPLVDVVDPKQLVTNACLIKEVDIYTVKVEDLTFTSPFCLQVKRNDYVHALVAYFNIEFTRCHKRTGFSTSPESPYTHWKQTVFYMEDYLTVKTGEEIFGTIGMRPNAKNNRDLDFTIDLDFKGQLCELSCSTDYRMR
Test: Inhibition of PRMT1 in human A375 cells assessed as effect on monomethyl R*GG motif methylation at 0.01 to 20 uM incubated for 48 hrs by Western blot method
Format: cell-based, A-375
metric: pIC50
// scale note: pIC50 = -log10(conc_M); give the bare number

-- ask Using the record for CNCCN(C)Cc1c[nH]nc1-c1ccc(O[C@H]2C[C@H](OCCC3CCOCC3)C2)cc1 , report its pIC50.
-- reply 5.15

###

Experiment: Tmax in Sprague-Dawley rat at 5 mg/kg, sc by LC-MS/MS method
Assay type: ADME, organism-based
Conditions: in vivo
metric: Tmax (min)
Write it as a number; the unit min goes unstated.

-- ask If you can, please state the reported Tmax value of CNCCN(C)Cc1c[nH]nc1-c1ccc(O[C@H]2C[C@H](OCCC3CCOCC3)C2)cc1 .
-- reply 26.6

###

Experiment: Terminal half life in Sprague-Dawley rat at 1 mg/kg, iv administered as single dose by LC-MS/MS method
Format: ADME, organism-based
Details: in vivo, read-out: beta t1/2 (converted)
metric: half-life (h)
Just the number please, in h, no unit attached.

-- ask Could you tell me which half-life is on file for CNCCN(C)Cc1c[nH]nc1-c1ccc(O[C@H]2C[C@H](OCCC3CCOCC3)C2)cc1 ?
-- reply 8.54
